Reported Ki by item:
- MEASUREMENT TARGET: C5a Receptor (Homo sapiens)
- Construct: 2.5-25 ug/mL of purified PMNL membrane fragments; endogenous in cells; host or cells: PMNL (polymorphonuclear leukocytes), purified membrane fragments
- Sequence (P21730 whole entry, the tested form may be a part): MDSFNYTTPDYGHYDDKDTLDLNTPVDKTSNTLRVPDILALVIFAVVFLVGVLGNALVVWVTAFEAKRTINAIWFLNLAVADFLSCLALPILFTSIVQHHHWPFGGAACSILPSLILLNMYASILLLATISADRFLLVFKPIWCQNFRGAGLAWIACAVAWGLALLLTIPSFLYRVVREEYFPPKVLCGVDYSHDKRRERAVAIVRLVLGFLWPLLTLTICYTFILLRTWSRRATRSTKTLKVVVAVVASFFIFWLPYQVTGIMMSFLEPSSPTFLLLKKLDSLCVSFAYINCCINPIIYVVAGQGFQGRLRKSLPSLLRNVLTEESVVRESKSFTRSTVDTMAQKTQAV
- PROTOCOL NOTES: Anaphylatoxin Receptor Binding Ki Determination (inhibition of 125I-C5a binding to PMNL membrane fragments)
- CONDITION DESCRIPTION: 0.03-1 nM 125I-C5a; 2.5-25 ug/mL purified PMNL membrane fragments; filtration; read-out: In vitro C5a Receptor Binding Potency Ki
Square brackets hold non-standard residues; d marks the D form. Peptide text beside a SMILES is read from it. NMeF = CN[C@@H](Cc1ccccc1)C(=O)O; Cha = N[C@@H](CC1CCCCC1)C(=O)O; dCha = N[C@H](CC1CCCCC1)C(=O)O; NMeA = CN[C@@H](C)C(=O)O; Nle = CCCC[C@H](N)C(=O)O; Aze = O=C(O)[C@@H]1CCN1; βAla = NCCC(=O)O
// return numeric value only (unit: µM, not printed)

Record excerpt, results attached:
CCCC[C@H](NC(=O)[C@H](Cc1ccccc1)NC)C(=O)N(C)[C@@H](C)C(=O)N[C@H](CC1CCCCC1)C(=O)N[C@@H](CC1CCCCC1)C(=O)N[C@H](CCCNC(=N)N)C(=O)O [Example 62] (H-[NMeF][Nle][NMeA][dCha][Cha][dR]-OH) has a reported Ki of 0.26

Record summary for N=C(N)NCCC[C@@H](NC(=O)[C@H](CC1CCCCC1)NC(=O)[C@@H](CC1CCCCC1)NC(=O)[C@@H]1CCN1C(=O)[C@H](CCCCN)NC(=O)[C@@H](N)Cc1ccccc1)C(=O)O [Example 43] (H-FK[Aze][dCha][Cha][dR]-OH) : reported Ki = 0.023

Entry CN[C@@H](Cc1ccccc1)C(=O)N[C@@H](CCCCN)C(=O)N1CCC[C@H]1C(=O)N[C@H](CC1CCCCC1)C(=O)N[C@@H](Cc1ccccc1)C(C)N[C@@H](CCCNC(=N)N)C(=O)O (mixture of isomers) , Ki reported as 4.2

Kindly consider the entry below.
Memo: CC(C)C[C@H](NC(=O)[C@H](CC1CCCCC1)NC(=O)CCNC(=O)[C@H](CCCCN)NC(=O)[C@@H](N)Cc1ccccc1)C(=O)N[C@H](C)C(=O)N[C@@H](CCCNC(=N)N)C(=O)O [Example 7] (H-FK[βAla][Cha]L[dA]R-OH) , reported Ki: 2.2
